- assayRemarks: in vitro
- particulars: dog
Measured CC50 at 24 h of individual entries

Before answering, review these 2 worked examples.
molecule	CC50 at 24 h
Cc1ccccc1-n1c(NCCCN2CCOCC2)nc2ccccc2c1=O [Compound S1b]	> 100 µM
O=c1c2c(O)c(Cc3ccccc3)c(=O)n(CCO)c2n(-c2ccccc2)c(=O)n1-c1ccccc1 [Compound S2a]	> 100 µM

Okay, now this molecule:
**Query** Query (molecule): Cn1c(=O)c(Nc2ccccc2)c(O)c2c(=O)n(-c3ccccc3)c(=O)n(-c3ccccc3)c21 [Compound S2f] ; field requested: CC50 at 24 h
**Result** > 100 µM
